The measured values listed here are drawn from patent US20210246200A1.

subjectOfTest: T1, Proleukin® (aldesleukin) (human, UniProt P60568 21-153, limits assumed)
T1 construct: Variant of human wt IL-2 with C145S (C125S on mature IL-2); also called IL-2 (Proleukin®); human IL-2 (Proleukin)
testProtocol: ELISA, coated Proleukin, serially diluted supernatant
valueKind: EC50 (nM)
# value in nM; strip the unit string

Antibody No: 3 (antibody, human IgG1, kappa, N297A, V domains shown, VH WT; VK A50S; HEK293F supernatant) VH: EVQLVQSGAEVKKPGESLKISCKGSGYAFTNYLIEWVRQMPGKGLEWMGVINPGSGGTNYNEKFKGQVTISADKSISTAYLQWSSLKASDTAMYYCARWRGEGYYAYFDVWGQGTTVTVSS VL: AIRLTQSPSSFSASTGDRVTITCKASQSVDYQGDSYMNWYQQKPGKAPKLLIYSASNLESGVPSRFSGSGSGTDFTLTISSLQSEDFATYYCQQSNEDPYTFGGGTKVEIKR	0.51

Let us move to another entry and its EC50.
Q: Dear colleague, I am looking for the recorded EC50 of the following binder: Antibody No: 25 (antibody, human IgG1, kappa, N297A, V domains shown, VK M33L + A50S; HEK293F supernatant) VH: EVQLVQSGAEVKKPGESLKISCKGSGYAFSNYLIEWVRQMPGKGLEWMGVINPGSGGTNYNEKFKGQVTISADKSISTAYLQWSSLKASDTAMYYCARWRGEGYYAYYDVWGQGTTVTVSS VL: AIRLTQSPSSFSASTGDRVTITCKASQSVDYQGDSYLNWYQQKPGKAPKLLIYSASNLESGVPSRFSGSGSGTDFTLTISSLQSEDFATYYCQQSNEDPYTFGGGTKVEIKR
Ans: 0.42
